tested.system: cloned human MC4R (Homo sapiens, UniProt P32245)
Construct: made in house; host or cells: Hi5 insect cells (baculovirus infection); membrane preparation
Sequence (P32245 whole entry): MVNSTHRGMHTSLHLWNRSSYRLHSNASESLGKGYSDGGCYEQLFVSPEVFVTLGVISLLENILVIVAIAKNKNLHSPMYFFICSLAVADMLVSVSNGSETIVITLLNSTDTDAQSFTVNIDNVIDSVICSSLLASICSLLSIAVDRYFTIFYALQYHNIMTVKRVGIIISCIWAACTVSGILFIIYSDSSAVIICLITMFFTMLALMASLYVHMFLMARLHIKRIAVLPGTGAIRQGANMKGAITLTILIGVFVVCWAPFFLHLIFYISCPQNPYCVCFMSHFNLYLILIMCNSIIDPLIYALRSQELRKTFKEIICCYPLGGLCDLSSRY
assay.notes: Membrane binding assay: competitive inhibition of [125I]NDP-α-MSH binding
conditions: at 10 μM; [125I]NDP-α-MSH displacement; read-out: Displacement Rate (%) (at 10 μM)
inhibition at 10 µM listing for selected compounds.

# compound, tested.system, inhibition at 10 µM
data = [
    ("CCOc1ccccc1CN1CCCN(C(=O)[C@@H](N)Cc2ccc(OCc3ccccc3)cc2)CC1 [Example 50]", "cloned human MC4R (Homo sapiens, UniProt P32245)", "35 to 70%"),
    ("CC(C)(C)c1ccc(CN2CCN(C(=O)[C@@H](N)Cc3ccc(OCc4ccccc4)cc3)CC2)cc1 [Example 112]", "cloned human MC4R (Homo sapiens, UniProt P32245)", "71 to 90%"),
    ("CC(c1ccccc1)N1CCN(C(=O)[C@@H](N)Cc2ccc(OCc3ccccc3)cc2)CC1 (stereo partly shown) [Example 157]", "cloned human MC4R (Homo sapiens, UniProt P32245)", "35 to 70%"),
    ("N[C@@H](Cc1ccc(-c2cc(Cl)cc(Cl)c2)cc1)C(=O)N1CCN(Cc2cccc(Cl)c2Cl)CC1 [Example 312]", "cloned human MC4R (Homo sapiens, UniProt P32245)", "91 to 100%"),
    ("COc1cc(OC)c(CN2CCN(C(=O)[C@@H](N)Cc3ccc(OCc4ccccc4)cc3)CC2)cc1Br [Example 130]", "cloned human MC4R (Homo sapiens, UniProt P32245)", "35 to 70%"),
    ("N[C@@H](Cc1ccc(OCc2ccccc2)cc1)C(=O)N1CCCN(Cc2cnc3ccccc3c2)CC1 [Example 62]", "cloned human MC4R (Homo sapiens, UniProt P32245)", "35 to 70%"),
    ("N[C@@H](Cc1ccc(OCc2ccccc2)cc1)C(=O)N1CCN(Cc2ccc3ccccc3c2)CC1 [Example 105]", "cloned human MC4R (Homo sapiens, UniProt P32245)", "71 to 90%"),
]

Recorded values, source patent US6916812B2.
